# Tested on: Kochia (Kochia scoparia)
# assay notes: Test A preemergence
# Format: in vivo
# applied conditions: Bassia scoparia, pre-emergence, 240 h, 31 g ai/ha, Preemergence; 0 to 100 scale where 0 is no effect and 100 is complete control; read-out: Kochia plant response rating
outcome measure: pest or weed control at 31 g/ha (%)
Respond with the bare value in %.

// below: answered compounds
{"columns": ["compound", "pest or weed control at 31 g/ha (%)"],
 "data": [
  ["CN1C[C@H](c2ccc(C(F)(F)F)cn2)[C@@H](C(=O)Nc2cccc(F)c2F)C1=O", 20],
  ["CN1C[C@H](c2ccc(C(F)(F)F)nc2)[C@@](C)(C(=O)Nc2ccc(F)c(F)c2F)C1=O", 0],
  ["CN1C[C@H](c2csc3c2CCCC3)[C@@H](C(=O)Nc2ccccc2F)C1=O", 0],
  ["CN1C[C@H](c2ccc(Br)cc2)[C@@H](C(=O)Nc2ccc(F)c(F)c2F)C1=O", 40]
]}

Reported pest or weed control at 31 g/ha ( "Cc1ccc([C@H]2CN(C)C(=O)[C@@H]2C(=O)Nc2c(F)c(F)c(F)c(F)c2F)cc1" ) = 60

Entry "Cc1ccncc1NC(=O)[C@H]1C(=O)N(C)C[C@@H]1c1cccc(C(F)(F)F)c1" — recorded pest or weed control at 31 g/ha = 0

The reported value for "Cc1cccc([C@H]2CN(C)C(=O)[C@@H]2C(=O)Nc2cnccc2C)c1" in terms of pest or weed control at 31 g/ha is 0

Entry CN1C[C@H](c2csc3c2CCC(F)(F)C3)[C@@H](C(=O)Nc2ccccc2S(C)(=O)=O)C1=O (racemic) ; pest or weed control at 31 g/ha = 0

// recorded pest or weed control at 31 g/ha for "CC(C)Oc1ccc([C@H]2CN(C)C(=O)[C@@H]2C(=O)Nc2ccccc2F)cc1F" : 0

Record summary for "CN1C[C@H](c2ccc3c(c2)C(F)(F)C(F)(F)O3)[C@@H](C(=O)Nc2cccc(F)c2F)C1=O" : reported pest or weed control at 31 g/ha = 30

The compound "Cc1ccc([C@H]2CN(C)C(=O)[C@@H]2C(=O)Nc2ccccc2)cc1" showed pest or weed control at 31 g/ha equal to 0

The compound listed as "CN1C[C@H](c2cc(C(F)F)cs2)[C@@H](C(=O)Nc2ccccc2S(C)(=O)=O)C1=O" shows pest or weed control at 31 g/ha equal to 0

Lookup result for "CSc1ccccc1NC(=O)[C@H]1C(=O)N(C2CC2)CC[C@@H]1c1ccc(F)cc1" ; measured pest or weed control at 31 g/ha: 0

###

# Tested on: redroot pigweed (Amaranthus retroflexus)
# assay notes: Test G Post-Emergence Protocol
# Assay type: in vivo
# applied conditions: Amaranthus retroflexus, post-emergence, 312 h, 250 g ai/ha, evaluated after 13 days, 100=total damage to plant, 0=no damage to plant, read-out: Pigweed, Redroot damage rating
# Text: Seeds of corn (Zea mays), giant foxtail (Setaria faberi), barnyardgrass (Echinochloa crus-galli), ivy-leaved morning glory (Ipomoea hederacea), redroot pigweed (Amaranthus retroflexus) and velvetleaf (Abutilon theophrasti) were sown in standard soil in pots. […]
outcome measure: pest or weed control at 250 g/ha (%)
Answer in %, number only, no unit symbol.

{"columns": ["compound", "units symbol", "observed value"],
 "data": [
  ["CCS(=O)(=O)c1ccccc1NC(=O)[C@H]1C(=O)N(C)C[C@@H]1c1ccc(C(F)(F)F)cc1 (racemic) [Compound 1664]", "%", 80],
  ["Cc1cc([C@H]2CN(C)C(=O)[C@@H]2C(=O)Nc2ccc(F)c(F)c2F)cnn1 (racemic) [Compound 1663]", "%", 0],
  ["C=Cc1cc(Oc2ccccc2)cc([C@@H]2CN(C)C(=O)[C@H]2C(=O)Nc2cccc(F)c2F)c1 (racemic) [Compound 1826]", "%", 50]
]}

The reported value for CN1C[C@@H](c2ccc(C(F)(F)F)cc2)[C@H](C(=O)Nc2ccnc(Cl)c2F)C1=O (racemic) [Compound 1656] in terms of pest or weed control at 250 g/ha is 30

pest or weed control at 250 g/ha recorded for this compound, CN1C[C@@H](c2ccc(C(F)(F)F)cc2)[C@H](C(=O)Nc2n[nH]cc2Cl)C1=O (racemic) [Compound 1658] , is 40

CN1C[C@H](c2ccc(C(F)(F)F)cc2)[C@@H](C(=O)Nc2cccnc2[S+](C)[O-])C1=O (mixture of isomers) [Compound 1788] yielded pest or weed control at 250 g/ha of 20

The measured pest or weed control at 250 g/ha associated with Cc1cc([C@H]2CN(C)C(=O)[C@@H]2C(=O)Nc2cccc(F)c2F)cnn1 (racemic) [Compound 1662] reads 0

pest or weed control at 250 g/ha reading for CN1C[C@H](c2ccc(C(F)(F)F)cc2)[C@@H](C(=O)Nc2ccc[n+]([O-])c2F)C1=O (racemic) [Compound 1815] : 0

For record CN1C[C@H](c2cc(C(C)(C)C)ncn2)[C@@H](C(=O)Nc2cccc(F)c2F)C1=O (racemic) [Compound 1667] the listed pest or weed control at 250 g/ha is 0

###

# Tested on: Kochia (Kochia scoparia)
# assay notes: Test A preemergence
# Type: in vivo
# applied conditions: Bassia scoparia, pre-emergence, 240 h, 500 g ai/ha, Preemergence, visual injury vs untreated controls after approximately 10 d; read-out: Kochia plant response rating (0 to 100 scale where 0 is no effect and 100 is complete control)
outcome measure: pest or weed control at 500 g/ha (%)
Numeric only. Scale: %

For "Cc1cc([C@H]2CNC(=O)[C@@H]2C(=O)Nc2ccccc2F)ccc1Cl" the molecule record lists pest or weed control at 500 g/ha as 30

Lab book: pest or weed control at 500 g/ha of "CN1C[C@H](c2cc(F)cc(F)c2)[C@@H](C(=O)Nc2ccccc2[S@+](C)[O-])C1=O" noted as 80

Entry under test: "COc1c(F)ccc([C@H]2CNC(=O)[C@@H]2C(=O)Nc2ccccc2C(F)(F)F)c1Cl" . Its pest or weed control at 500 g/ha was 20

In plain terms, "CSc1ccccc1NC(=O)[C@H]1C(=O)N(C)C[C@@H]1c1cc(F)c(F)c(F)c1" has a documented pest or weed control at 500 g/ha of 80

Item: "CN1C[C@H](c2cccc(F)c2)[C@@H](C(=O)Nc2ccccc2C(F)(F)F)C1=O" | pest or weed control at 500 g/ha: 70

So, "Cc1cc(F)cc([C@H]2CNC(=O)[C@@H]2C(=O)Nc2ccc(F)c(F)c2F)c1" ? Its pest or weed control at 500 g/ha was 70

The recorded pest or weed control at 500 g/ha for "CN1C[C@H](c2cccc(C3CC3)c2)[C@@H](C(=O)Nc2ccc(F)cc2F)C1=O" is 80

Form: molecule = "CN1C[C@H](c2cc(F)c(C(F)(F)F)c(F)c2)[C@@H](C(=O)Nc2ccc(F)cc2F)C1=O" ; pest or weed control at 500 g/ha = 80

###

pest or weed control at 250 g/ha by entry:
# Test system: velvetleaf (Abutilon theophrasti)
# assay notes: Test G Pre-Emergence Protocol
# Assay type: in vivo
# applied conditions: Abutilon theophrasti, pre-emergence, 312 h, 250 g ai/ha, evaluated after 13 days, read-out: Velvetleaf damage rating (100=total damage to plant; 0=no damage to plant)
Kindly answer with a numeric value in %, unit omitted.

{"columns": ["molecule", "observed value"],
 "data": [
  ["CN1C[C@@H](c2ccc(C(F)(F)F)cc2)[C@H](C(=O)Nc2nnc[nH]2)C1=O (racemic)", 0],
  ["Cc1cccc(NC(=O)[C@@H]2C(=O)N(C)C[C@H]2c2ccc(C(F)(F)F)cc2)c1Br (racemic)", 10],
  ["Cc1nc(C(F)(F)F)ccc1NC(=O)[C@@H]1C(=O)N(C)C[C@H]1c1ccc(C(F)(F)F)cc1 (racemic)", 0],
  ["CN1C[C@H](c2ccc(C(F)(F)F)cc2)[C@@H](C(=O)Nc2nccc(C(F)(F)F)c2F)C1=O (racemic)", 0],
  ["Cc1c(F)cccc1NC(=O)[C@@H]1C(=O)N(C)C[C@H]1c1cccc(OCC(F)(F)F)c1 (racemic)", 30],
  ["CN1C[C@H](c2cccc(C(F)F)c2)[C@@H](C(=O)Nc2ccccc2S(C)(=O)=O)C1=O (racemic)", 0]
]}

Here is another molecule to look at.
The molecule identified as COc1cc([C@H]2CN(C)C(=O)[C@@H]2C(=O)Nc2ccccc2F)ccc1Cl (racemic) registered its pest or weed control at 250 g/ha at 0

###

# Tested on: giant foxtail (Setaria faberii)
# assay notes: Test A postemergence
# Assay type: in vivo
# applied conditions: Setaria faberi, post-emergence, 240 h, 125 g ai/ha, postemergence, visual injury vs untreated controls after approx. 10 d; 0 = no effect, 100 = complete control; read-out: Foxtail, Giant plant response rating (0 to 100 scale)
pest or weed control at 125 g/ha: recorded values
Response body: numeric value in %, unit text excluded.

{"columns": ["structure smiles string", "pest or weed control at 125 g/ha / %"],
 "data": [
  ["CCc1cc([C@H]2CN(C)C(=O)[C@@H]2C(=O)Nc2ccccc2F)cs1", 90],
  ["CCc1ccc([C@H]2CNC(=O)[C@@H]2C(=O)Nc2cccc(F)c2C)cc1", 50]
]}

# context switch: different molecule, same pest or weed control at 125 g/ha
So for "CSc1ccccc1NC(=O)[C@H]1C(=O)N(C)C[C@@H]1c1cccc(C)c1" , the logged pest or weed control at 125 g/ha turned out to be 80
